- System: HCT-116 colon
- Assay details: NCI tumour cell line growth inhibition, 48 h
Listed next: entries and their corresponding TGI.

Compound	Quantity unit	Operator symbol	TGI
CN1c2ccccc2S(=O)(=O)n2c(COc3ccc(Cl)cc3)nnc21	µM	>	100
COc1c(CNC(=O)CCl)cc2[nH]c(C)cc2c1CNC(=O)CCl	µM	=	15.7
CC1(C)C(=S)C(C)(C)C1=S	µM	>	100
OC(COc1cccc2ccccc12)CN1CCN(c2ccccc2)CC1 (stereo not given)	µM	=	27
CSc1ccc2c(cc1=O)C(NC(=O)c1ccc(OC(C)=O)cc1)CCc1cc(O)c(O)c(O)c1-2 (stereo not given)	µM	=	31.1
CC(C)[Si](OC1=C(C(=O)N(C)c2ccccc2Cl)CCC1)(C(C)C)C(C)C	µM	=	37
N#CC(C#N)=CSc1ccccc1	µM	=	76.3
COC(=O)[C@H](CC(C)C)NC(=O)NC(=O)NC(=O)CI	µM	=	22.8
CC1=C[C@]2(CC(C)C3C(CC4(C)C5CCC6C(C)(C)C(=O)CC[C@@]67C[C@@]57CC[C@]34C)O2)OC1=O (stereo not given in full)	µM	>	100
[C-]#[O+].[Cl][Sn]([Cl])[Cl].[Cl][Sn]([Cl])[Cl].[Pt].c1ccncc1	µM	>	100
CC(=O)OC1CC2(c3ccccc3)C(=O)c3ccccc3N2O1 (stereo not given)	µM	>	100
c1ccc2c3c([nH]c2c1)C1c2[nH]c4ccccc4c2CCN1CC3	µM	=	23.3
CCCCN(CCCC)CCCN=c1nc2c(c(N)n1-c1ccccc1)c(=S)n(-c1ccccc1)c(=S)n2-c1ccccc1	µM	=	1.5
CNC(C)C(=O)N[C@H](C(=O)N1CCC[C@@H]1CN(CCc1ccccc1)C(=O)C(F)(F)F)[C@H](C)OCC#CC#CCO[C@H](C)[C@H](NC(=O)[C@H](C)NC)C(=O)N1CCC[C@H]1CN(CCc1ccccc1)C(=O)C(F)(F)F (stereo not given in full)	µM	=	2.78
NC(=O)C(NC=O)c1ccccc1 (stereo not given)	µM	>	100
O=C(O)CCC1(Br)CCCCC(Br)C1=O (stereo not given)	µM	>	100
CCOC(=O)C1=C(C)NC2SC(=O)/C(=C\c3ccccc3)N2C1c1ccccc1 (stereo not given)	µM	>	100
CC(=O)[O-].CC(=O)[O-].[NH2-].[Pt+2].c1ccncc1	µM	>	100
O=c1[nH]c(SCc2c(Cl)c(Cl)c(Cl)c(Cl)c2Cl)nc(=S)[nH]1	µM	>	100
CCOP(=O)(OCC)C(Cc1ccc(OC)c(OC)c1)N=C(c1ccccc1)c1ccccc1 (stereo not given)	µM	>	100

###

- Test system: IGROV1 ovarian
- Assay details: NCI tumour cell line growth inhibition, 48 h
Measured endpoint: TGI

> print(dat)
                                   compound     target.desc  measured.endpoint    result
1  Cc1c[nH]c(C(=O)O)c1-c1ccc2c(-c3ccccc3)nc3ccccc3n12  IGROV1 ovarian                TGI   77.8 µM
2                      N#CC(C#N)=CSc1ccccc1  IGROV1 ovarian                TGI   35.7 µM
3  O=c1c2cc(Br)cc(Br)c2[nH]c(=S)n1-c1ccccc1  IGROV1 ovarian                TGI  > 100 µM
4                  O=C(CCCc1ccccn1)c1ccccc1  IGROV1 ovarian                TGI  > 100 µM
5  COc1ccc(C2=NN(c3ccccc3)C(c3cc4cc(Br)ccc4nc3Cl)C2)cc1 (stereo unspecified)  IGROV1 ovarian                TGI   > 25 µM
6            O=C(O)CCCCn1cnc2c(=S)nc[nH]c21  IGROV1 ovarian                TGI  > 100 µM

###

- Tested on: M14 melanoma
- Assay details: NCI tumour cell line growth inhibition, 48 h
Measured endpoint: TGI

> print(dat)
                                    compound      result
 1  O=C(Nc1nc2ccc([N+](=O)[O-])cc2[n+]([O-])n1)C(F)(F)F    > 100 µM
 2  CC[O-].Cc1ccc2cccc([O-])c2n1.Cc1ccc2cccc([O-])c2n1.Cc1ccc2cccc([O-])c2n1.[Ti+4]   > 53.5 µM
 3  C[C@H]1CC[C@@H]2[C@@H](C)[C@H]3[C@H](C[C@H]4[C@@H]5CC=C6C[C@@H](O)CC[C@]6(C)[C@H]5C[C@H](O)[C@]34C)N2C1    > 100 µM
 4  CC(C)c1cccc(C(C)C)c1NC(=O)C(=O)C(C(=O)c1ccc2ccccc2c1)C1OC(=O)c2ccccc21 (centres undefined)    > 100 µM
 5  CC1C/C(=N\N(C)C)C(C#N)(C#N)C1(C#N)C#N (centres undefined)     31.7 µM
 6           CCOC(=O)c1cccc([N+](=O)[O-])c1N    > 100 µM
 7  Cc1ccc(S(=O)(=O)Oc2ccc(OS(=O)(=O)c3ccc(C)cc3)c3c2C(=O)c2ccccc2C3=O)cc1    > 100 µM
 8  CCN(CC)CCCC(Nc1c2ccc(Cl)cc2nc2ccc(OC)cc12)c1ccc(F)cc1 (centres undefined)     3.58 µM
 9       Cc1ccc2c(=O)c(-c3nnc(N)s3)c[nH]c2n1    > 100 µM
10  CC(=O)O[C@H]1CC[C@@]2(C)C(=CC[C@@H]3[C@@H]2CC[C@]2(C)C(=N/O)/C(=C/c4ccc([N+](=O)[O-])cc4)C[C@@H]32)C1     47.7 µM
11  CCCCNC(=O)Nc1c(C(N)=O)c2n(c1C(=O)OCC)CCCCC2    > 100 µM
12  CC(=O)OC1C(CCl)OC(N=[N+]=[N-])C(OC(C)=O)C1OC(C)=O (centres undefined)    > 100 µM
13  COc1cccc(NC(=O)CC(=O)N2NC(C)C(N=Nc3cccc(C(=O)O)c3)C2=O)c1 (centres undefined)    > 100 µM
14  C#CCNC(=O)CC[C@]1(C)[C@H]2CC[C@@H]3[C@@H]([C@@](C)(O)CCC=C(C)C)CC[C@@]3(C)[C@]2(C)CC[C@H]1C(=C)C    > 100 µM
15               CC(C)C(=O)/C=C/c1ccc(Cl)cc1       33 µM
16  Cc1cc2c(cc1C)[n+](=O)c(C(=O)N1CCN(c3ccc([N+](=O)[O-])cc3)CC1)c(C)n2[O-]    > 100 µM
17  N#CC(C#N)=C(N)/C(C#N)=C/c1cc(O)c(O)c(Br)c1    > 100 µM
18  COP1(=O)NCc2ncccc2O1 (centres undefined)    > 100 µM
19                               O=C(O)C#CCO    > 100 µM
20  COc1cccc(C2C3=C(COC3=O)N(CCO)c3cc4c(cc32)OCCO4)c1 (centres undefined)     0.19 µM
21  CC1=C([Se]CC(OC(=O)[C@@H](CO)NC(=O)OC(C)(C)C)C(=O)NC(C)(C)C)C(=O)c2ccccc2C1=O (some centres undefined)     3.04 µM
22     Cc1cc(C)cc(Sc2c([N+](=O)[O-])ncn2C)c1     27.6 µM
23  CC1=C[C@]2(CC(C)C3C(CC4(C)C5CCC6C(C)(C)C(=O)CC[C@@]67C[C@@]57CC[C@]34C)O2)OC1=O (some centres undefined)    > 100 µM
24  CCCCN(CCCC)CCCN=c1nc2c(c(N)n1-c1ccccc1)c(=S)n(-c1ccccc1)c(=S)n2-c1ccccc1    0.424 µM
25            O=C1Nc2ccccc2Nc2nc3cccccc-3c21    > 100 µM
26  CCCN(CCC)CCCNC(=O)c1cc2c(-c3ccc(OC)c(OC)c3)nn(C)c2s1       35 µM
27  O=c1[nH]c(SCc2c(Cl)c(Cl)c(Cl)c(Cl)c2Cl)nc(=S)[nH]1    > 100 µM
28         N#Cc1c(NC(=O)CN2CCOCC2)sc2c1CCCC2     > 25 µM
29  NCC1OC(OC2C(CO)OC(OC3C(O)C(N)CC(N)C3OC3OC(CO)C(O)C(O)C3N)C2O)C(N)C(O)C1O (centres undefined)  > 50 µg/mL
30  O=P1(Oc2ccc(Cl)cc2)OCCS1 (centres undefined)    > 100 µM
31  COc1cc2c3c(n(C)c(=O)c2cc1OC)-c1cc2c(cc1/C3=C\CCCBr)OCO2    > 100 µM
32  CSc1ccc2c(cc1=O)C(NC(=O)c1ccc(OC(C)=O)cc1)CCc1cc(O)c(O)c(O)c1-2 (centres undefined)     30.7 µM
33  C#COc1cccc(Nc2ncnc3ncc(NC(=O)CCl)cc23)c1   > 62.5 µM
34   Cc1cccc2c(N)c3cccc(C(=O)NCCN(C)C)c3nc12    0.422 µM
35  C=CCN(/C=C1\C(=O)O[C@H](COC)[C@@]2(C)C1=C(O)C(=O)C1=C2[C@H](OC(C)=O)C[C@]2(C)C(=O)CC[C@@H]12)CC=C    > 100 µM
36   C=C(C)[C@@]1(O)CCC[C@H]1NC(=O)OC(C)(C)C    > 100 µM
37  O=[N+]([O-])c1cccc2nc3ccccc3c(NCCCN3CCOCC3)c12   0.0233 µM
38  Cc1ccc(S(=O)(=O)Oc2cc(S(=O)(=O)O)cc3cc(S(=O)(=O)O)cc(N)c23)cc1    > 100 µM
39  CCCCCC(=O)OCC1(CO)C/C(=C\CC(C(C)C)C(C)C)C(=O)O1 (centres undefined)    > 100 µM

Data origin: PubChem BioAssay (NCI)
